The entries below come with measured GI50 at 120 h values attached.
# Test Name: Growth inhibition of human HMEC cells after 5 days by SRB assay
# Assay type: cell-based
# Assay Context: HMEC cells
Measurement Type: GI50 at 120 h

{"columns": ["Structure Smiles String", "Test Result"],
 "data": [
  ["COc1ccc2c(c1)[C@]1(C[C@H]1c1ccc3c(/C=C/c4ccc(CN5CCOCC5)cc4)n[nH]c3c1)C(=O)N2C", "> 30 µM"],
  ["COc1ccc2c(c1)[C@]1(C[C@H]1c1ccc3c(/C=C/c4ccc(CN5C[C@@H](C)O[C@@H](C)C5)cc4)n[nH]c3c1)C(=O)N2C", "> 30 µM"],
  ["COc1ccc2c(c1)[C@]1(C[C@H]1c1ccc3c(/C=C/c4ccc(N5CCN(C)CC5)nc4)n[nH]c3c1)C(=O)N2", "47 µM"],
  ["O=C1Nc2ccccc2[C@]12C[C@H]2c1ccc2c(/C=C/c3ccc(CN4CCCC4)cc3)n[nH]c2c1", "3.6 µM"],
  ["CC(C)N1CCC(Oc2ccc(/C=C/c3n[nH]c4cc([C@@H]5C[C@@]56C(=O)Nc5ccccc56)ccc34)cc2)CC1", "4.1 µM"]
]}

---

# Target Or System: Cytochrome P450 3A4 (Homo sapiens, UniProt P08684)
# Sequence (P08684 whole entry): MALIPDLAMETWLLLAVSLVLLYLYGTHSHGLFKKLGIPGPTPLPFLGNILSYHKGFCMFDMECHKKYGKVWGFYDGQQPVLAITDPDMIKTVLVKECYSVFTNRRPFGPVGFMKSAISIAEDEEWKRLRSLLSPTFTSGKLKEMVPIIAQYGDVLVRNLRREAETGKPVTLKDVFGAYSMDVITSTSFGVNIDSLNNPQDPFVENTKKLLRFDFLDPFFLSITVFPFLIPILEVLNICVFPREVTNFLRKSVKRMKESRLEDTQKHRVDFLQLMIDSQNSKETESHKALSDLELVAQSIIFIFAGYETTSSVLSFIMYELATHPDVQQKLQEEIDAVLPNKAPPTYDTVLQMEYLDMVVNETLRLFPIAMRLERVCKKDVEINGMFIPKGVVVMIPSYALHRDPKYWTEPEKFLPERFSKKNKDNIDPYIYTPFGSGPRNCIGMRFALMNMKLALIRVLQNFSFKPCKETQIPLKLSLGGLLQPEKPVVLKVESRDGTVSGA
# Test Name: Inhibition of CYP3A4 (unknown origin) using DBF as substrate by fluorescence assay
pIC50: −log10 of the molar value.

{"columns": ["Structure Smiles String", "Target Or System", "Readout Relation", "pIC50"],
 "data": [
  ["COc1ccc2c(c1)[C@]1(C[C@H]1c1ccc3c(/C=C/c4ccc(CN5CCOCC5)cc4)n[nH]c3c1)C(=O)N2", "Cytochrome P450 3A4 (Homo sapiens, UniProt P08684)", "=", 5.19],
  ["CN(C)Cc1ccc(/C=C/c2n[nH]c3cc([C@@H]4C[C@@]45C(=O)Nc4ccccc45)ccc23)cc1", "Cytochrome P450 3A4 (Homo sapiens, UniProt P08684)", "=", 5.00],
  ["COc1ccc2c(c1)[C@]1(C[C@H]1c1ccc3c(/C=C/c4ccc(CN5CCCCC5)cc4)n[nH]c3c1)C(=O)N2", "Cytochrome P450 3A4 (Homo sapiens, UniProt P08684)", "=", 5.27],
  ["COc1ccc2c(c1)[C@]1(C[C@H]1c1ccc3c(/C=C/c4ccc(N5CCN(C)CC5)nc4)n[nH]c3c1)C(=O)N2", "Cytochrome P450 3A4 (Homo sapiens, UniProt P08684)", "=", 5.25],
  ["O=C1Nc2ccccc2[C@]12C[C@H]2c1ccc2c(/C=C/c3ccc(N4CCNCC4)cc3)n[nH]c2c1", "Cytochrome P450 3A4 (Homo sapiens, UniProt P08684)", "=", 5.55],
  ["O=C1Nc2ccccc2[C@]12C[C@H]2c1ccc2c(/C=C/c3ccc(CN4CCOCC4)cc3)n[nH]c2c1", "Cytochrome P450 3A4 (Homo sapiens, UniProt P08684)", "=", 5.57],
  ["CN(C)Cc1ccc(/C=C/c2n[nH]c3cc([C@@H]4C[C@@]45C(=O)N(C)c4ccccc45)ccc23)cc1", "Cytochrome P450 3A4 (Homo sapiens, UniProt P08684)", "<", 6.00],
  ["COc1ccc2c(c1)[C@]1(C[C@H]1c1ccc3c(/C=C/c4ccc(CN5[C@H](C)CN(C)C[C@@H]5C)cc4)n[nH]c3c1)C(=O)N2", "Cytochrome P450 3A4 (Homo sapiens, UniProt P08684)", "=", 5.80],
  ["COc1ccc2c(c1)[C@]1(C[C@H]1c1ccc3c(/C=C/c4ccc(CN5C[C@@H](C)O[C@@H](C)C5)cc4)n[nH]c3c1)C(=O)N2C", "Cytochrome P450 3A4 (Homo sapiens, UniProt P08684)", "<", 6.00],
  ["CC(C)N1CCC(Oc2ccc(/C=C/c3n[nH]c4cc([C@@H]5C[C@@]56C(=O)Nc5ccccc56)ccc34)cc2)CC1", "Cytochrome P450 3A4 (Homo sapiens, UniProt P08684)", "=", 5.80],
  ["COc1ccc2c(c1)[C@]1(C[C@H]1c1ccc3c(/C=C/c4ccc(CN(C)C)cc4)n[nH]c3c1)C(=O)N2", "Cytochrome P450 3A4 (Homo sapiens, UniProt P08684)", "=", 5.12],
  ["COc1ccc2c(c1)[C@]1(C[C@H]1c1ccc3c(/C=C/c4ccc(CN5CCOCC5)cc4)n[nH]c3c1)C(=O)N2C", "Cytochrome P450 3A4 (Homo sapiens, UniProt P08684)", "=", 5.22],
  ["COc1ccc2c(c1)[C@]1(C[C@H]1c1ccc3c(/C=C/c4ccc([C@H](C)N5CCOCC5)cc4)n[nH]c3c1)C(=O)N2C", "Cytochrome P450 3A4 (Homo sapiens, UniProt P08684)", "=", 4.96],
  ["CN1CCN(c2ccc(/C=C/c3n[nH]c4cc([C@@H]5C[C@@]56C(=O)N(C)c5ccccc56)ccc34)cn2)CC1", "Cytochrome P450 3A4 (Homo sapiens, UniProt P08684)", "=", 5.54]
]}

All values here come from ChEMBL document CHEMBL3407349.
